Each recorded value in this set is attributed to paper PMC4552634.

Test system: P. falciparum stage V gametocytes
Design: BacTiter-Glo ATP luminescence viability of purified stage V gametocytes in 384-well plates, per cent inhibition versus DMSO
Conditions: 48 h, 5 µM; inhibitor
Screen size: about 13,000 compounds; about 3,200 (25%) showed an effect of 50% or more. This is one part of the list.
readoutType: % Inhibition (%)
The reply should be a number in %, with the unit left off.

Worked examples, 5 compounds total:
Cn1nc(-c2ccc(CNC3CCc4ccccc43)cc2)c2cnc(NCCCN3CCCC3)nc21 (stereo not drawn)
65.55
COc1ccc2nccc([C@@H](O)CN3CCC(NCc4ccc5c(c4)N(C)C(=O)CO5)CC3)c2c1
-7.365
Cc1cc(CNC(c2ccccc2)C2CCC2)cc(C)c1O (stereo not drawn)
-25.25
CCC1N=C(N)N=C(N)N1OCc1cccc2ccccc12 (stereo not drawn)
22.21
CC(=O)Nc1ncc(C(=O)Nc2cccc(-c3cccc(-c4nc5ccc(F)cc5[nH]4)c3)c2)s1
-0.106

# % Inhibition (compound: Cn1nc(-c2ccc(CNC3CCc4ccccc43)cc2)c2cnc(NCCN3CCCC3)nc21 (stereo not drawn) ) is 65.68

Form: compound = C=CCN1C(=O)c2[nH]nc(-c3cc(C)c(C)cc3O)c2C1c1cccc(Br)c1 (stereo not drawn) ; % Inhibition = 9.594

Short answer for Cc1cnc(Nc2cccc(CCN3CCOCC3)c2)nc1NC(C)C : % Inhibition was 57.17

Form: compound = CCCN(CC)CCOC(=O)c1ccccc1 ; % Inhibition = 17.72

====

System: P. falciparum stage V gametocytes
Parameters: BacTiter-Glo ATP luminescence viability of purified stage V gametocytes in 384-well plates, per cent inhibition versus DMSO
Details: 48 h, 5 µM; inhibitor
In all, about 13,000 compounds went through this assay and about 3,200 (25%) showed an effect of 50% or more. The list shows a part of the results.
// % Inhibition lookup, one value per entry
Just the number in %, nothing appended.

CC(C)(C)c1ccc2nc(-c3ccc(C(=O)NCc4cccc(C(F)(F)F)c4)cc3)[nH]c2c1 [TCMDC-140454]
18.91
CCOCCCNc1nc2cc(OC)c(OC)cc2c2nc(-c3ccccc3)nn12 [TCMDC-124406]
-8.61
Cc1cc2nc(-c3ccc(OCC(=O)NCc4ccc(C(C)(C)C)cc4)cc3)[nH]c2cc1C [TCMDC-140440]
63.48
CCOC(=O)c1ccc2nc(-c3ccc(C(=O)NCc4ccc(C(C)(C)C)cc4)cc3)[nH]c2c1 [TCMDC-140576]
-8.95

Cc1cccc2[nH]c(-c3cccc(-c4ccc(NC(=O)c5cnn6cccnc56)cc4)c3)nc12 [TCMDC-136868] yielded % Inhibition of -35.86

Recorded % Inhibition (molecule CN(CC(=O)Nc1ccc(F)c(F)c1F)c1ncnc2sc(-c3ccccc3)cc12 [TCMDC-124491] ): 23.36

Kindly note the recorded % Inhibition for CC1CCN(CC[C@H]2CCCN2S(=O)(=O)c2cccc(NC(=O)Nc3ccc(C(F)(F)F)cc3)c2)CC1 [TCMDC-141021] , which is -52.23

Recorded % Inhibition (molecule COc1ccc(Nc2ncc(Cl)c(Nc3cccnc3C(N)=O)n2)cc1N1CCN(C)CC1 [TCMDC-134163] ): 97.54

The recorded % Inhibition for entry CNC(=O)c1ccccc1Nc1nc(Nc2ccc(CCN3CCN(C)CC3)cc2)ncc1Cl [TCMDC-133800] equals 8.334

Kindly note the recorded % Inhibition for Cc1cc2nc(-c3ccc(OCC(=O)NCc4cccc(C(F)(F)F)c4)cc3)[nH]c2cc1C [TCMDC-140439] , which is -1.946

Field % Inhibition (entry O=C(NC1CC1)c1ccc(N2CCCC(COc3ccccc3F)C2)nc1 (stereo not shown) [TCMDC-134034] ) reads 24.35

Noted for CC(C)(C)c1ccc(CNC(=O)c2ccc(-c3nc4ccc(Cl)cc4[nH]3)cc2)cc1 [TCMDC-140442] : its % Inhibition reads 5.243

Form field % Inhibition, entry Cc1nc2nc(N)nc(N)c2c(C)c1Cc1cccc(C(F)(F)F)c1 [TCMDC-137658] : -3.325

Recorded % Inhibition (molecule CC(C)(C)c1ccc(NC(=O)c2cccc(CN3CCCN(CC4CCCCC4)CC3)c2)cc1 [TCMDC-135980] ): -75.44

Given item CC(C)(C)c1ccc2nc(-c3ccc(C(=O)NCCCc4ccccc4)cc3)[nH]c2c1 [TCMDC-140453] , the value recorded as its % Inhibition is 68.75

The measured % Inhibition associated with CCCCCN1CCC(NS(=O)(=O)c2cccc(C(=O)Nc3ccc(Cl)cc3)c2)CC1 [TCMDC-132806] reads 32.08

====

Here the recorded % Inhibition is given for each entry.
Test system: P. falciparum stage V gametocytes
Set-up: BacTiter-Glo ATP luminescence viability of purified stage V gametocytes in 384-well plates, per cent inhibition versus DMSO
Settings: 48 h, 5 µM; inhibitor
About 3,200 (25%) of roughly 13,000 compounds showed an effect of 50% or more. Some of the results follow.
Return type: number; implicit unit %.

Look over these answered cases.
O=C(c1csc(-c2cccnc2)n1)N1CCc2cc3nccc(N4CCN5CCC[C@H]5C4)c3cc21
44.75
CCN(CC)CCN(Cc1ccc(-c2ccc(C(F)(F)F)cc2)cc1)C(=O)Cn1cc(Cc2cnn(C)c2)c(=O)nc1/C=C/c1ccc(F)cc1
95.48
CCN(CC)CCN(Cc1ccc(-c2ccc(C(F)(F)F)cc2)cc1)C(=O)Cn1cc(Cc2cnn(C)c2)c(=O)nc1/C=C/c1cccc(F)c1F
99.53

# % Inhibition of COc1ccc(CCCCN2C(=O)C(c3ccccc3)(c3ccccc3)N=C2N)cc1 = -62.46

====

% Inhibition listing for selected compounds.
System: P. falciparum stage V gametocytes
Set-up: BacTiter-Glo ATP luminescence viability of purified stage V gametocytes in 384-well plates, per cent inhibition versus DMSO
Conditions: 48 h, 5 µM; inhibitor
In all, about 13,000 compounds went through this assay and about 3,200 (25%) showed an effect of 50% or more. The list shows a part of the results.
Give the figure together with its unit, number first.

Log: P. falciparum stage V gametocytes, compound COC(=O)CNC(c1ccccc1)c1cc(Br)ccc1NC(=O)c1ccccc1Br (centres unmarked) , % Inhibition = 56.77%

Entry Cc1ccc2nc(Nc3ccc(Nc4nc5ccc(C)cc5[nH]4)c(C)c3)[nH]c2c1 : % Inhibition on P. falciparum stage V gametocytes = -70.19%

Measured % Inhibition (P. falciparum stage V gametocytes), entry CCc1ccc(CN2CCC(CNC(=O)c3cc(-c4cccc(F)c4)cs3)C2)cc1 (centres unmarked) : 99.62%

# CN(C)c1ccc(CN2CCC(CNC(=O)c3cc(-c4cccc(C(F)(F)F)c4)cs3)C2)cc1 (centres unmarked) with P. falciparum stage V gametocytes: % Inhibition is 29.06%

P. falciparum stage V gametocytes assay, compound O=C(NC1CCN(Cc2ccccc2)CC1)c1cc(-c2ccncc2)nc2ccc(Cl)cc12 , recorded % Inhibition = 9.958%

With P. falciparum stage V gametocytes as the test system, CC(C)(C)c1ccc(CN2CCC(CNC(=O)c3cc(-c4ccccc4)nc4ccccc34)CC2)cc1 showed % Inhibition of 75.79%

Simply: Cc1onc(-c2ccccc2Cl)c1C(=O)Nc1cc(Cl)c(Cl)cc1Cl , P. falciparum stage V gametocytes, % Inhibition = 9.365%

Reported % Inhibition (P. falciparum stage V gametocytes) for entry O=C(Nc1ccon1)c1cc(-c2cccnc2)nc2ccc(Br)cc12 is -5.67%

====

Tested on: P. falciparum stage V gametocytes
Parameters: BacTiter-Glo ATP luminescence viability of purified stage V gametocytes in 384-well plates, per cent inhibition versus DMSO
Conditions: 48 h, 5 µM; inhibitor
Hit rate of the full screen: of about 13,000 compounds, about 3,200 (25%) showed an effect of 50% or more. The list shows a part of the results.
Kindly return T if reported % Inhibition is no lower than 10%; return F if it is lower.

Examples from the recorded data:
Cc1nc(-c2cccc3c(NC(=O)Nc4ccc5nccc(N6CCN(C)CC6)c5c4)cccc23)no1
T
COc1ccc(C2=[N+]([O-])c3ccccc3C2=O)cc1
F
Nc1cccc(CNCc2cccc(-c3ccc(-c4nc5ccccc5[nH]4)cc3)c2)c1.O=C(O)C(F)(F)F
F
CN(c1cc(NC(=O)c2cccs2)ccn1)C1CCN(Cc2cccc(C#N)c2)CC1
T
CN1CCN(c2ccnc3ccc(NC(=O)Nc4cccc5c(-c6ccncc6)cccc45)cc23)CC1
F

Exercise: Say whether CN(CCN(C)C(=O)NCc1ccccc1)C(=O)NCc1ccccc1 shows % Inhibition of 10% or more.
Solution: F

Exercise: hey, is % Inhibition for this one >= 10%? Cc1cccc(-c2ccc3c(c2)CC(NCc2cccc(-n4ccnc4)c2)C3)c1 (centres unmarked)
Solution: F

====

Test system: P. falciparum stage V gametocytes
Parameters: BacTiter-Glo ATP luminescence viability of purified stage V gametocytes in 384-well plates, per cent inhibition versus DMSO
Details: 48 h, 5 µM; inhibitor
About 3,200 (25%) of roughly 13,000 compounds showed an effect of 50% or more. The list shows a part of the results.
readoutType: % Inhibition (%)
Report as a plain number; the unit % is understood.

For this compound ( O=C(/C=C/c1ccc(Cl)c(Cl)c1)NCCCCCCN1CCCN(C(=O)Nc2cccc(C(F)(F)F)c2)CC1 ), measured % Inhibition is 13.78

The compound listed as Cc1cccn2c(=O)c3cc(C(=O)NCc4cccnc4)c(=N)n(CCc4ccccc4)c3nc12 has a reported % Inhibition of 86.68

Per the record, O=C(/C=C/c1ccc(Cl)c(Cl)c1)NCCCCN1CCCN(C(=O)Nc2ccc(Cl)c(Cl)c2)CC1 has % Inhibition of 87.86

// % Inhibition lookup, compound = O=C(/C=C/c1ccc(Cl)c(Cl)c1)NCCCCN1CCCN(C(=O)Nc2ccc(F)c(Cl)c2)CC1 , result: -30.88

# % Inhibition of CC(C)Cc1nc2nc(N)nc(N)c2cc1C(C)C = 2.497

// % Inhibition value for Cc1cccn2c(=O)c3cc(C(=O)NC(C)c4ccccc4)c(=N)n(CCc4ccccc4)c3nc12 (centres unmarked) : -59.42

Per the records, this compound ( COc1cc2c(cc1C=CC(=O)N1CCN(Cc3nc4sc(C)c(C)c4c(=O)[nH]3)CC1)OC(C)C2 (centres unmarked) ) has % Inhibition equal to -4.453

Looking up O=C(/C=C/c1ccc(Cl)c(Cl)c1)NCCCCCCN1CCCN(C(=O)Nc2ccc(F)c(Cl)c2)CC1 , I see its % Inhibition listed as 14.82
